Target: glucagon receptor (UniProt P47871 26-477, limits assumed)
Sequence (P47871 26-477 limits assumed): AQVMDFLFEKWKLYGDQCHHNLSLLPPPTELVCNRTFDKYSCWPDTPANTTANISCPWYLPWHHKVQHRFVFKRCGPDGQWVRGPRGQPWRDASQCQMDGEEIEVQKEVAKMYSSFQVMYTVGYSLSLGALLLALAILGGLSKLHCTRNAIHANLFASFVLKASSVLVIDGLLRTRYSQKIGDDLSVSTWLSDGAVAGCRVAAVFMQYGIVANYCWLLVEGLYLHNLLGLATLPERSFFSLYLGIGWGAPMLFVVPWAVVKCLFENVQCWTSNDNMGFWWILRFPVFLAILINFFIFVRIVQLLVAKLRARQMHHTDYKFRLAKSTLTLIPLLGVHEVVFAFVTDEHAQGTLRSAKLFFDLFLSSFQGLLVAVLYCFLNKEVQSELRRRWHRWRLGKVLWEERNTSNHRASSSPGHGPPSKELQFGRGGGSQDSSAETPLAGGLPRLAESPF
Assay: cell-based or functional assay
*1 amine or outer side, *2 acyl side, *3 side chain or, on linkers, in order; H or OH if unused. Where no end group is shown, it is not given here. Side-chain parts run from the residue outwards. [ ]: non-standard residue; d: D form. The star is where a group is joined. γGlu = O=C(O)[C@H](CCC(=O)[*:2])N[*:1]; Palmitoyl = CCCCCCCCCCCCCCCC(=O)*; Aib = CC(C)(N)C(=O)O
# EC50 (cAMP reporter) per entry

>  <binder>
H[Aib]QGTFTSDK([γGlu-Palmitoyl])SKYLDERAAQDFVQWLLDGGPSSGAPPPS-NH2 [Analog No. 30: Aib2, K10acyl, E16, A18, L27, D28, G29 + CEX (SEQ ID NO: 28)]

>  <EC50 (cAMP reporter) (pM)>
3

$$$$
>  <binder>
H[Aib]QGTFTSDYSKYLDERAAQDFVQWLLDGGPSSGAPPPSY(Palmitoyl)G-NH2 (also: Y40 O-2palmitic acid, exact structure not given here) [peptide of SEQ ID NO: 212]

>  <EC50 (cAMP reporter) (pM)>
7

$$$$
>  <binder>
H[Aib]QGTFTSDYSKYLDERAAQDFVQWLLDAGPSSGAPPPSK([γGlu-γGlu-Palmitoyl])G-NH2 [peptide of SEQ ID NO: 204]

>  <EC50 (cAMP reporter) (pM)>
3

$$$$
>  <binder>
H[Aib]QGTFTSDYSKYLDERAAQDFVQWLLAGGPSSGAPPPSK([γGlu-γGlu-Palmitoyl])G-NH2 [peptide of SEQ ID NO: 203]

>  <EC50 (cAMP reporter) (pM)>
3

$$$$
>  <binder>
H[Aib]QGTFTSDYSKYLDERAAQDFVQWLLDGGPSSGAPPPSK([γGlu-γGlu-Palmitoyl])G-NH2 (not fully specified) [peptide of SEQ ID NO: 89]

>  <EC50 (cAMP reporter) (pM)>
6

$$$$
